What fold difference in affinity vs parental ING-1 was measured for each of the following?
- System Tested: T1, Ep-CAM (UniProt P16422 24-265, limits assumed)
- T1 construct: Amine coupled to a CM5 chip in the Biacore assays
- T1 sequence (looked up): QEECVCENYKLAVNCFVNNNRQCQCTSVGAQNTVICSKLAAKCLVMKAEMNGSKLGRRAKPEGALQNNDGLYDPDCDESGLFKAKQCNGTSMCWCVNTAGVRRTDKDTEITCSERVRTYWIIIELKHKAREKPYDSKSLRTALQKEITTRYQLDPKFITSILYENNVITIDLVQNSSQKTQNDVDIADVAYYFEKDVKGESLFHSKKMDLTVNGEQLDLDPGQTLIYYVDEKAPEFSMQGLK
- Measurement Protocol: Biacore, Fab periplasmic extract
API: value field is a number in fold; no unit string.

Ask: Given ING-1 light chain Y37K (Fab, V domains shown, Fab, periplasmic extract) VH: QIQLVQSGPELKKPGETVKISCKASGYTFTKYGMNWVKQAPGKGLKWMGWINTYTEEPTYGDDFKGRFAFSLETSASTANLQINNLKSEDTATYFCARFGSAVDYWGQGTSVTVSS VL: DIVMTQAAFSNPVTLGTSGSISCRSSKSLLHSNGITKLYWYLQKPGQSPQLLIYQMSNLASGVPDRFSSSGSGTDFTLRISRVEAEDVGVYYCAQNLELPRTFGGGTKLEMKR , state its recorded fold difference in affinity vs parental ING-1.
Reply: 0.02

Ask: # query: fold difference in affinity vs parental ING-1 of entry ING-1 light chain L99H (Fab, V domains shown, Fab, periplasmic extract) VH: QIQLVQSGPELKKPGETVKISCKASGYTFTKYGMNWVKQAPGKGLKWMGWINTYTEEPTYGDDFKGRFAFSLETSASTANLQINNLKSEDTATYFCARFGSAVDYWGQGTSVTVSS VL: DIVMTQAAFSNPVTLGTSGSISCRSSKSLLHSNGITYLYWYLQKPGQSPQLLIYQMSNLASGVPDRFSSSGSGTDFTLRISRVEAEDVGVYYCAQNLEHPRTFGGGTKLEMKR
Reply: 0.05
